target: CDK1 CCNA2 (human) (UniProt P06493+P20248); assay: radiometric filter-binding kinase assay, Kinase HotSpot; details: compound 0.5 µM; ATP 10 µM
Sequence (P06493 whole entry, looked up): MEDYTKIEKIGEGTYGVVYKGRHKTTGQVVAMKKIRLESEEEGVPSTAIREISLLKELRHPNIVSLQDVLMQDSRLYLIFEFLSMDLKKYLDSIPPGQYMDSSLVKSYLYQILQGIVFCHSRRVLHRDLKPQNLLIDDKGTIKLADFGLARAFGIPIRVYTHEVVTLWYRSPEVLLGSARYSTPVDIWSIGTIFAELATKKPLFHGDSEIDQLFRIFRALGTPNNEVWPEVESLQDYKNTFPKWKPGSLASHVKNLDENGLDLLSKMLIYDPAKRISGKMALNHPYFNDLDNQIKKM
Sequence (P20248 whole entry, looked up): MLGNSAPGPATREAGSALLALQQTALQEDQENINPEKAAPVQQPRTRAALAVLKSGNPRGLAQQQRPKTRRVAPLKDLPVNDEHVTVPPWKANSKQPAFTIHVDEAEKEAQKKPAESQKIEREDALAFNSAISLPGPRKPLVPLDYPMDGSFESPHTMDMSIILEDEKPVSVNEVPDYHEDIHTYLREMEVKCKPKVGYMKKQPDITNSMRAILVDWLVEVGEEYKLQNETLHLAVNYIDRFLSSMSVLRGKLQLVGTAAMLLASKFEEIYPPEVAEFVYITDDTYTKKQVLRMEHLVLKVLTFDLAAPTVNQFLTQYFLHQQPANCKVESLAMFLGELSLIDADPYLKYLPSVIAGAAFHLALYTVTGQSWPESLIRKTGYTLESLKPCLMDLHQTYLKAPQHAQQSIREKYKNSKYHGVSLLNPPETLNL
// reported residual activity per item

{"smilesRecord": "COc1ccc2c(c1)/C(=C/c1cnc[nH]1)C(O)=N2", "measurementUnit": "%", "residual activity": 43.7}
{"smilesRecord": "CN(C)c1ccc(/C=C2\\C(=O)Nc3ccccc32)cc1", "measurementUnit": "%", "residual activity": 96.9}
{"smilesRecord": "COc1cc2ncnc(Nc3ccc(OCc4ccccc4)cc3)c2cc1OC", "measurementUnit": "%", "residual activity": 97.2}
{"smilesRecord": "Cc1cccc(-c2nc(C(C)(C)C)[nH]c2-c2ccc3c(c2)OCO3)n1", "measurementUnit": "%", "residual activity": 96.7}
{"smilesRecord": "c1ccc2c(-c3ccncc3)c[nH]c2c1", "measurementUnit": "%", "residual activity": 90.6}
{"smilesRecord": "Cc1cncc2cccc(S(=O)(=O)N3CCCN(C(=O)CN)C[C@H]3C)c12", "measurementUnit": "%", "residual activity": 89.2}
{"smilesRecord": "CC(C)(C)c1cc(C=C(C#N)C#N)cc(Br)c1O", "measurementUnit": "%", "residual activity": 87.8}
{"smilesRecord": "O=C1c2ccccc2-c2n[nH]c3cccc1c23", "measurementUnit": "%", "residual activity": 85.6}
{"smilesRecord": "O=C1NC(=O)c2c1c1c3ccccc3[nH]c1n1cncc21", "measurementUnit": "%", "residual activity": 94.8}
{"smilesRecord": "Cn1c2ccccc2c2c3c(c4c5ccccc5n(CCC#N)c4c21)CNC3=O", "measurementUnit": "%", "residual activity": 55.5}
{"smilesRecord": "COc1ccc(Cl)cc1NC(=O)Nc1cc(C)nc2ccccc12", "measurementUnit": "%", "residual activity": 104}

----------
target: DCLK2 (human); experiment: radiometric filter-binding kinase assay, Kinase HotSpot; details: compound 0.5 µM; ATP 10 µM
// reported residual activity per item
parameter: residual activity (%)

{"smilesRecord": "CN(C)c1ccc(/C=C2\\C(=O)Nc3ccccc32)cc1", "parameter": "residual activity", "recordedNumber": 100}
{"smilesRecord": "C[C@@H]1CCN(C(=O)CC#N)C[C@@H]1N(C)c1ncnc2[nH]ccc12", "parameter": "residual activity", "recordedNumber": 96.6}
{"smilesRecord": "CCCCc1c(-c2ccc(OC)cc2)[nH]c2nccnc12", "parameter": "residual activity", "recordedNumber": 101}
{"smilesRecord": "O=C(c1cc2cc(O)ccc2[nH]1)c1cc2cc(O)ccc2[nH]1", "parameter": "residual activity", "recordedNumber": 88.4}
{"smilesRecord": "COc1cc2ncnc(Nc3ccc(Oc4ccccc4)cc3)c2cc1OC", "parameter": "residual activity", "recordedNumber": 99.5}
{"smilesRecord": "Cc1nc(-c2ccccc2)c(-c2ccncc2)o1", "parameter": "residual activity", "recordedNumber": 97}
{"smilesRecord": "c1ccc2c(-c3ccncc3)c[nH]c2c1", "parameter": "residual activity", "recordedNumber": 98.1}
{"smilesRecord": "CC(C)(C)c1cc(C=C(C#N)C#N)cc(Br)c1O", "parameter": "residual activity", "recordedNumber": 109}
{"smilesRecord": "Cn1c2ccccc2c2c3c(c4c5ccccc5n(CCC#N)c4c21)CNC3=O", "parameter": "residual activity", "recordedNumber": 84.7}
{"smilesRecord": "CN(C)S(=O)(=O)c1ccc2c(c1)/C(=C/c1cc3c([nH]1)CCCC3)C(=O)N2", "parameter": "residual activity", "recordedNumber": 72}

----------
target: UniProt Q14012; assay: radiometric filter-binding kinase assay, Kinase HotSpot; conditions: compound 0.5 µM; ATP 10 µM
Sequence (Q14012 whole entry, looked up): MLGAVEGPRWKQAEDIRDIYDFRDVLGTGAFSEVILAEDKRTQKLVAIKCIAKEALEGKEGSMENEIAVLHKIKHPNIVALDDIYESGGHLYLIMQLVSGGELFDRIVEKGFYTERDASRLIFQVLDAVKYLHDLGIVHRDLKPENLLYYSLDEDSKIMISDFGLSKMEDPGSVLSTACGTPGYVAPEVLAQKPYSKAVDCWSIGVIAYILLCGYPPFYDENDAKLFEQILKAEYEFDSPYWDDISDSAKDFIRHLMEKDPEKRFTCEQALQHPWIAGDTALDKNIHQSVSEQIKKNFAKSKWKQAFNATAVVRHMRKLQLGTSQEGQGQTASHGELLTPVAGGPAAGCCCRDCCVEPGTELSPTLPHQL
// reported residual activity per item

{"smilesRecord": "CN(C)c1ccc(/C=C2\\C(=O)Nc3ccccc32)cc1", "measurementUnit": "%", "residual activity": 104}
{"smilesRecord": "CC(C)(C)c1cc(C=C(C#N)C#N)cc(Br)c1O", "measurementUnit": "%", "residual activity": 97.5}
{"smilesRecord": "O=C1Nc2ccc(Br)cc2/C1=C\\c1cc2c([nH]1)CCCC2", "measurementUnit": "%", "residual activity": 98.4}
{"smilesRecord": "CCCCc1c(-c2ccc(OC)cc2)[nH]c2nccnc12", "measurementUnit": "%", "residual activity": 90.9}
{"smilesRecord": "COc1cc(Nc2c(C#N)cnc3cc(OCCCN4CCN(C)CC4)c(OC)cc23)c(Cl)cc1Cl", "measurementUnit": "%", "residual activity": 68.9}
{"smilesRecord": "C[C@@H]1CCN(C(=O)CC#N)C[C@@H]1N(C)c1ncnc2[nH]ccc12", "measurementUnit": "%", "residual activity": 99.3}
{"smilesRecord": "COc1cc2ncnc(Nc3ccc(OCc4ccccc4)cc3)c2cc1OC", "measurementUnit": "%", "residual activity": 98.4}
{"smilesRecord": "CN(C)CCCn1cc(C2=C(c3c[nH]c4ccccc34)C(=O)NC2=O)c2ccccc21", "measurementUnit": "%", "residual activity": 82.7}
{"smilesRecord": "COc1ccc2c(c1)c(C1=C(c3c[nH]c4ccccc34)C(=O)NC1=O)cn2CCCN(C)C", "measurementUnit": "%", "residual activity": 90.2}
{"smilesRecord": "Cn1c2ccccc2c2c3c(c4c5ccccc5n(CCC#N)c4c21)CNC3=O", "measurementUnit": "%", "residual activity": 94.2}

----------
target: HCK (human) (UniProt P08631); assay: radiometric filter-binding kinase assay, Kinase HotSpot; conditions: compound 0.5 µM; ATP 10 µM
Sequence (P08631 whole entry, looked up): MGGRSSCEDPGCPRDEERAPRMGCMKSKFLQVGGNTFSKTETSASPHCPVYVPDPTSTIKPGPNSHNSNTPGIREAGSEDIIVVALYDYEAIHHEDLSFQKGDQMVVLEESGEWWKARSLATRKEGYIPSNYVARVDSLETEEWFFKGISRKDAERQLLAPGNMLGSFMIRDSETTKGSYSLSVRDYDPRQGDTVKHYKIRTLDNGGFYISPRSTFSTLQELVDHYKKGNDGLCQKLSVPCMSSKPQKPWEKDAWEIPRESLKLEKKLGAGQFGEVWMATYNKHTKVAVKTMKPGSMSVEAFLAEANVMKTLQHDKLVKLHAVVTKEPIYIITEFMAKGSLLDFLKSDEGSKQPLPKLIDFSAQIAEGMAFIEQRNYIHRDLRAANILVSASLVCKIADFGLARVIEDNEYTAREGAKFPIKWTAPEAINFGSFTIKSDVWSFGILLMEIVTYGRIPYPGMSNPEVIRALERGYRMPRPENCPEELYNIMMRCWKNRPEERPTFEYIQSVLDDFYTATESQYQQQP
// reported residual activity per item
parameter: residual activity (%)

{"smilesRecord": "Cn1c2ccccc2c2c3c(c4c5ccccc5n(CCC#N)c4c21)CNC3=O", "studySystem": "HCK (human) (UniProt P08631)", "measurementUnit": "%", "recordedNumber": 96.8}
{"smilesRecord": "COc1cc2ncnc(Nc3ccc(OCc4ccccc4)cc3)c2cc1OC", "studySystem": "HCK (human) (UniProt P08631)", "measurementUnit": "%", "recordedNumber": 74.5}
{"smilesRecord": "Cc1cncc2cccc(S(=O)(=O)N3CCCN(C(=O)CN)C[C@H]3C)c12", "studySystem": "HCK (human) (UniProt P08631)", "measurementUnit": "%", "recordedNumber": 96.4}
{"smilesRecord": "O=C(c1cc2cc(O)ccc2[nH]1)c1cc2cc(O)ccc2[nH]1", "studySystem": "HCK (human) (UniProt P08631)", "measurementUnit": "%", "recordedNumber": 51.2}
{"smilesRecord": "CC(C)(C)c1cc(C=C(C#N)C#N)cc(Br)c1O", "studySystem": "HCK (human) (UniProt P08631)", "measurementUnit": "%", "recordedNumber": 66.1}
{"smilesRecord": "COc1ccc2c(c1)/C(=C/c1cnc[nH]1)C(O)=N2", "studySystem": "HCK (human) (UniProt P08631)", "measurementUnit": "%", "recordedNumber": 96.1}

----------
molecular target: MINK1 (human) (UniProt Q8N4C8); test: radiometric filter-binding kinase assay, Kinase HotSpot; conditions: compound 0.5 µM; ATP 10 µM
Sequence (Q8N4C8 whole entry, looked up): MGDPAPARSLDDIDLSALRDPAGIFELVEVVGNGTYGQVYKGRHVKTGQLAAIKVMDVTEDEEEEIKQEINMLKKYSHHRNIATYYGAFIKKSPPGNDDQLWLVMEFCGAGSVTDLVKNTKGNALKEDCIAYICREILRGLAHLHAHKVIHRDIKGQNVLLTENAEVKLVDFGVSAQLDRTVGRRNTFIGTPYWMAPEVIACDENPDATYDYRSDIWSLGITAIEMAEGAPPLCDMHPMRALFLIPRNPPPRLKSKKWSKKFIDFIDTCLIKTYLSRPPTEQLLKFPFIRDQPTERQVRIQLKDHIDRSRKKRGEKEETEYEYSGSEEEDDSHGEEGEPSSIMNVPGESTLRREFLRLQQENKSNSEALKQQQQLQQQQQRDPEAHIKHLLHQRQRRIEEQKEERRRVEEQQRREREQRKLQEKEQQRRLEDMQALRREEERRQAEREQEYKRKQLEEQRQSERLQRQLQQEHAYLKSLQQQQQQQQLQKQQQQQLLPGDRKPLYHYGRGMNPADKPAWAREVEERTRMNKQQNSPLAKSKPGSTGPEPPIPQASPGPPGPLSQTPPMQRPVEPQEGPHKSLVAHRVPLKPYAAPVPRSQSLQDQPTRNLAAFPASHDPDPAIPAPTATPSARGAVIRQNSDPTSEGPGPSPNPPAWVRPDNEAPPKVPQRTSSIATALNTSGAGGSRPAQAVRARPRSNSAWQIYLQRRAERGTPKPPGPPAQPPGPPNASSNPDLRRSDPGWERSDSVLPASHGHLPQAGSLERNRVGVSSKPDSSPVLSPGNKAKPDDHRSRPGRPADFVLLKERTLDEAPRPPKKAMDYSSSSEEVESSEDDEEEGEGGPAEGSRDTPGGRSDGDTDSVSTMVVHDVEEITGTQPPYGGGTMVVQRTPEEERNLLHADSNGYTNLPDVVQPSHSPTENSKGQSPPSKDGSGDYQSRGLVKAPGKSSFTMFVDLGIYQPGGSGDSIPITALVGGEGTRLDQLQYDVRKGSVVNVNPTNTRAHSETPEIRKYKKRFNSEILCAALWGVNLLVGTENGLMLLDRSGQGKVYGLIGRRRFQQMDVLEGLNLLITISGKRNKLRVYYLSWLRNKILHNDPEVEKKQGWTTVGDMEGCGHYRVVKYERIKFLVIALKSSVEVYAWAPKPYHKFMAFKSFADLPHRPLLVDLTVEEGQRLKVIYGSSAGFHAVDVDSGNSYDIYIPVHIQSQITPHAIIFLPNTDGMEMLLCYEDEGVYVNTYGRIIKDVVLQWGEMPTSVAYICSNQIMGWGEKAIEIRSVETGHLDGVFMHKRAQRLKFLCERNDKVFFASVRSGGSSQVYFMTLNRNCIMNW
Cut-off 80% on residual activity: below means 1, at or above means 0.

{"smilesRecord": "N#C/C(=C\\c1ccc(O)c(O)c1)C(=O)NCc1ccccc1", "category": 0}
{"smilesRecord": "COc1ccc(S(=O)(=O)N(CCO)c2ccccc2CN(C)C/C=C/c2ccc(Cl)cc2)cc1", "category": 0}
{"smilesRecord": "CCCCc1c(-c2ccc(OC)cc2)[nH]c2nccnc12", "category": 0}
{"smilesRecord": "CO[C@@H]1[C@H](N(C)C(=O)c2ccccc2)C[C@H]2O[C@]1(C)n1c3ccccc3c3c4c(c5c6ccccc6n2c5c31)C(=O)NC4", "category": 1}
{"smilesRecord": "CN(C)S(=O)(=O)c1ccc2c(c1)/C(=C/c1cc3c([nH]1)CCCC3)C(=O)N2", "category": 0}
{"smilesRecord": "Cn1c2ccccc2c2c3c(c4c5ccccc5n(CCC#N)c4c21)CNC3=O", "category": 1}
{"smilesRecord": "O=C1NC(=O)c2c1c1c3ccccc3[nH]c1n1cncc21", "category": 1}
{"smilesRecord": "c1ccc2c(-c3ccncc3)c[nH]c2c1", "category": 0}
{"smilesRecord": "O=C1C(Cl)=C(N2C(=O)CCC2=O)C(=O)c2ccccc21", "category": 0}
{"smilesRecord": "Ic1cccc(CSc2nnc(-c3ccncc3)o2)c1", "category": 0}

----------
target: UniProtKB Q9H3Y6; assay: radiometric filter-binding kinase assay, Kinase HotSpot; details: compound 0.5 µM; ATP 10 µM
Sequence (Q9H3Y6 whole entry, looked up): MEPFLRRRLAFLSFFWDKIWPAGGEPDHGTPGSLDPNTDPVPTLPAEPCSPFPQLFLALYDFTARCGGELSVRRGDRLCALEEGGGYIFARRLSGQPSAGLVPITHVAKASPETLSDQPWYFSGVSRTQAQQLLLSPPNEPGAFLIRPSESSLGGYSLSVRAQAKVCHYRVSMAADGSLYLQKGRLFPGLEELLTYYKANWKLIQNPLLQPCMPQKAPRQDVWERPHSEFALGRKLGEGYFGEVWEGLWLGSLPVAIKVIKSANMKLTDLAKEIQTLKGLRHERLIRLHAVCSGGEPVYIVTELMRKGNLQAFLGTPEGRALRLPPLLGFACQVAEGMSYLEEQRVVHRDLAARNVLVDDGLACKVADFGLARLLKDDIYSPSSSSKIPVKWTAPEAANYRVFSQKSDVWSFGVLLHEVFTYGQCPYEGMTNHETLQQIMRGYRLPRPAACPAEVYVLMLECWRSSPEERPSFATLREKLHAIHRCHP
// reported residual activity per item

{"smilesRecord": "COc1ccc(Cl)cc1NC(=O)Nc1cc(C)nc2ccccc12", "studySystem": "UniProtKB Q9H3Y6", "residual activity, %": 97.6}
{"smilesRecord": "COc1cc2ncnc(Nc3ccc(Oc4ccccc4)cc3)c2cc1OC", "studySystem": "UniProtKB Q9H3Y6", "residual activity, %": 31.6}
{"smilesRecord": "O=C(c1cc2cc(O)ccc2[nH]1)c1cc2cc(O)ccc2[nH]1", "studySystem": "UniProtKB Q9H3Y6", "residual activity, %": 93.7}
{"smilesRecord": "N#C/C(=C\\c1ccc(O)c(O)c1)C(=O)NCc1ccccc1", "studySystem": "UniProtKB Q9H3Y6", "residual activity, %": 104}
{"smilesRecord": "O=C1Nc2ccc(Br)cc2/C1=C\\c1cc2c([nH]1)CCCC2", "studySystem": "UniProtKB Q9H3Y6", "residual activity, %": 104}
{"smilesRecord": "O=C1c2ccccc2-c2nc3nnnn3nc21", "studySystem": "UniProtKB Q9H3Y6", "residual activity, %": 6.33}
{"smilesRecord": "CN(C)S(=O)(=O)c1ccc2c(c1)/C(=C/c1cc3c([nH]1)CCCC3)C(=O)N2", "studySystem": "UniProtKB Q9H3Y6", "residual activity, %": 104}
{"smilesRecord": "CC(C)(C)c1cc(C=C(C#N)C#N)cc(Br)c1O", "studySystem": "UniProtKB Q9H3Y6", "residual activity, %": 98.4}
{"smilesRecord": "Fc1ccc(-c2nc3n(c2-c2ccncc2)CCS3)cc1", "studySystem": "UniProtKB Q9H3Y6", "residual activity, %": 102}
{"smilesRecord": "c1ccc2c(-c3ccncc3)c[nH]c2c1", "studySystem": "UniProtKB Q9H3Y6", "residual activity, %": 107}
{"smilesRecord": "CN(C)c1ccc(/C=C2\\C(=O)Nc3ccccc32)cc1", "studySystem": "UniProtKB Q9H3Y6", "residual activity, %": 97.9}
